Assay: Screening of cytisine salt formation with acid salt formers
Format: physicochemical
Conditions: API stock solution in 2-MeTHF; equimolar acid, 40° C. one hour, cooled to ambient

{"compound": "O=C(O)C=CC(=O)O.O=c1cccc2n1CC1CNCC2C1 (stereo not shown) [Maleate, Cytisine Maleate]", "Assessment (salt preparation)": "Excellent salt profile"}
{"compound": "O=C(O)c1cc(O)ccc1O.O=c1cccc2n1C[C@@H]1CNC[C@H]2C1 [Gentisate, Cytisine Gentisate]", "Assessment (salt preparation)": "Excellent salt profile"}
{"compound": "CS(=O)(=O)O.O=c1cccc2n1C[C@@H]1CNC[C@H]2C1 [Mesylate, Cytisine Mesylate]", "Assessment (salt preparation)": "Excellent salt profile"}

====

Test: Screening of cytisine salt formation with acid salt formers
Type: physicochemical
Details: API stock solution in CH3CN; equimolar acid, 40° C. one hour, cooled to ambient

{"compound": "CS(=O)(=O)O.O=c1cccc2n1C[C@@H]1CNC[C@H]2C1 [Mesylate, Cytisine Mesylate]", "Assessment (salt preparation)": "Excellent salt profile"}
{"compound": "O=C(O)c1cc(O)ccc1O.O=c1cccc2n1C[C@@H]1CNC[C@H]2C1 [Gentisate, Cytisine Gentisate]", "Assessment (salt preparation)": "Excellent salt profile"}
{"compound": "O=C(O)C=CC(=O)O.O=c1cccc2n1CC1CNCC2C1 (stereo not shown) [Maleate, Cytisine Maleate]", "Assessment (salt preparation)": "Excellent salt profile"}
